Assay: activity coefficient (dimensionless); of the first substance listed, at infinite dilution; xn = mol fraction of the nth substance listed
Conditions: 323.15 K; 101.33 kPa; Liquid; Chromatography; x1 = 0
measure: activity coefficient
I'd appreciate a reply containing only the number, no unit.

These solved cases illustrate the format of a correct answer.
>>> df
                                   compound               measure  obs_value
0  CC(C)=O [acetone] + CCCCCCCCn1cc[n+](C)c1C.F[B-](F)(F)F  activity coefficient        1.4
1  ClC(Cl)(Cl)Cl [tetrachloromethane] + CCCCCCCCn1cc[n+](C)c1C.F[B-](F)(F)F  activity coefficient       4.16
2  Cc1ccccc1 [toluene] + CCCCCCCCn1cc[n+](C)c1C.F[B-](F)(F)F  activity coefficient       2.89

Turning to the following compound.
Consider the compound shown here: Cc1ccc(C)cc1 [1,4-dimethylbenzene] + CCCCCCCCn1cc[n+](C)c1C.F[B-](F)(F)F What is its recorded activity coefficient?
4.12

====

Test: activity coefficient (dimensionless); of the first substance listed, at infinite dilution; xn = mol fraction of the nth substance listed
Details: 353.15 K; 101.33 kPa; Liquid; Chromatography; x1 = 0
measure: activity coefficient

These solved cases illustrate the format of a correct answer.
In [3]: df
Out[3]:
                                   molecule  obs_value
0  CC(C)CC(C)(C)C [2,2,4-trimethylpentane] + CCCCCCCCn1cc[n+](C)c1C.F[B-](F)(F)F       26.1
1  C1CCOC1 [tetrahydrofuran] + CCCCCCCCn1cc[n+](C)c1C.F[B-](F)(F)F       2.15
2  Cc1ccccc1 [toluene] + CCCCCCCCn1cc[n+](C)c1C.F[B-](F)(F)F       3.09

Turning to the following molecule.
Consider the molecule shown here: CC(C)CO [2-methyl-1-propanol] + CCCCCCCCn1cc[n+](C)c1C.F[B-](F)(F)F What is its recorded activity coefficient?
2.19

====

# activity coefficient annotations
Assay: activity coefficient (dimensionless); of the first substance listed, at infinite dilution; xn = mol fraction of the nth substance listed
Settings: 313.15 K; 101.33 kPa; Liquid; Chromatography; x1 = 0

>>> print(df.to_string())
                                   compound               measure  obs_value
0  Cc1ccccc1 [toluene] + CCCCCCCCn1cc[n+](C)c1C.F[B-](F)(F)F  activity coefficient       2.84
1  C1CCOC1 [tetrahydrofuran] + CCCCCCCCn1cc[n+](C)c1C.F[B-](F)(F)F  activity coefficient       2.06

Consider the compound shown here: Cc1cccc(C)c1 [1,3-dimethylbenzene] + CCCCCCCCn1cc[n+](C)c1C.F[B-](F)(F)F What is its recorded activity coefficient?
4.19

====

Experiment: activity coefficient (dimensionless); of the first substance listed, at infinite dilution; xn = mol fraction of the nth substance listed
Conditions: 313.15 K; 101.33 kPa; Liquid; Chromatography; x1 = 0
# activity coefficient annotations
I'd appreciate a reply containing only the number, no unit.

These solved cases illustrate the format of a correct answer.
                                   compound               measure  obs_value
0  c1ccccc1 [benzene] + CCCCCCCCn1cc[n+](C)c1C.F[B-](F)(F)F  activity coefficient       2.04
1  CCCCC [pentane] + CCCCCCCCn1cc[n+](C)c1C.F[B-](F)(F)F  activity coefficient       15.8

Turning to the following compound.
Consider the compound shown here: Cc1ccccc1C [1,2-dimethylbenzene] + CCCCCCCCn1cc[n+](C)c1C.F[B-](F)(F)F What is its recorded activity coefficient?
3.5
